Overview of reported parasite % of control across a group of compounds:
test: kinase inhibitors against Plasmodium liver-stage infection, cell-based, known kinase inhibitor set, luminescence, hepatoma host viability (AID 624392); conditions: Plasmodium liver stage in hepatoma cells, luciferase luminescence, concentration not given here; stronger effect = lower value;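 also: infected cells incubated roughly two days before readout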

# COMPOUND, parasite % of control [%]
data = [
    ("Cn1cc(C2=C(c3c4n(c5ccccc35)CCC(CN)C4)C(=O)NC2=O)c2ccccc21 (configuration not stated)", 50.7),
    ("COc1cc(N2CCN(C(C)C)CC2)ccc1Nc1nc(Nc2cccc(F)c2C(=O)O)c2cc[nH]c2n1", 124),
    ("Cn1cc(C2=C(c3cn(C)c4cc(C(N)=O)ccc34)C(=O)NC2=O)c2ccccc21", 59.1),
    ("Nc1c(C(=O)c2cccc(CCC3(O)CCCC3)c2)cnn1-c1ccc(F)cc1", 81),
    ("CCN(CC)Cc1ccc(Nc2nccc(-c3cnn4ncccc34)n2)cc1", 12.5),
    ("NS(=O)(=O)c1cccc(-c2cc3ccncc3cc2OCc2ccccc2)c1", 183),
    ("O=C1NC(=O)C(c2ccccc2Cl)=C1Nc1cccc(O)c1", 148),
    ("N#Cc1ccc2c(-c3ccnc(NC4CC4)n3)c(-c3ccc(F)cc3)nn2c1", 87.3),
    ("CN1C(=O)C(c2c[nH]c3ccccc23)=C(c2c[nH]c3ccccc23)C1=O", 30.7),
    ("Cn1cc(C2=C(c3cccc(NCC(O)CO)c3)C(=O)NC2=O)c2cc(Cl)ccc21 (configuration not stated)", 44.5),
    ("O=C1NC(=NCCc2ccc(F)cc2)SC1=Cc1ccc2ncccc2c1", 57.5),
    ("N#Cc1cccc(Nc2ncc(-c3ccccc3)o2)c1", 125),
]

Measured values drawn from PubChem BioAssay for this set.
